B1: tRNA (parent)
chain: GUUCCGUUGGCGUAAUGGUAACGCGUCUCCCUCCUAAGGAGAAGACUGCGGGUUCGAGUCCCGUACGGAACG

Variants of: B1
Experiment: yeast fitness relative to wild type (ratio to wild type); higher = fitter; tRNA-Arg(CCU), competitive growth, 37 C, YPD
Variants at the floor of the assay were thinned out.
REPORTED_ENDPOINT: yeast fitness

# input variant: C5U C55A ; wanted: its yeast fitness
0.668

State the recorded yeast fitness for this entry: C22A C30U C49U C66U
0.601

Request the reported yeast fitness associated with A15G A20C C60U
≤ 0.5

Value lookup for yeast fitness; key = C24G C34U U35A C55U
≤ 0.5

Recorded yeast fitness for U19C G25A G44C U47A , please?
≤ 0.5

Query (variant): U7G C11A C22G C30G ; field requested: yeast fitness
≤ 0.5

Consider the variant shown here: C24U C30A C60U What is its recorded yeast fitness?
≤ 0.5

Reported yeast fitness, variant U13A G38A C49G G50C A70G : ____
≤ 0.5

Endpoint output: yeast fitness of C33G G44A G56A . Value?
≤ 0.5

GET /values?readout=yeast fitness&item= C5G C30A C34G
≤ 0.5

I would be grateful if you could share the reported yeast fitness for U16A G41A .
1.1

# input variant: G18A C24U G56A ; wanted: its yeast fitness
0.674

Could you tell me which yeast fitness is on file for G18C C24U C66U ?
≤ 0.5

Need yeast fitness, item U13C A36G C46A C49A
≤ 0.5

Fill in: yeast fitness of A15C G18A U19G G58C is ___
≤ 0.5

Using the record for G6A C27G A57C C66G , report its yeast fitness.
≤ 0.5

# yeast fitness lookup, item C22U C29A C55G A65U G67A
0.578

I have this variant here, U16A A40U , and I need its recorded yeast fitness.
1

# yeast fitness lookup, item G6A C24U C66U
0.647

Dear colleague, I am looking for the recorded yeast fitness of the following variant: A15G A42G C61U
0.579

Reported yeast fitness, variant U13A A37G : ____
0.714

Recorded yeast fitness of A15G C24G U28A G52C A65C , please.
≤ 0.5

// query yeast fitness value for entry G6A U32A
0.809

Requested field: yeast fitness. Item: C4U C33U G50C
≤ 0.5

Give the measured yeast fitness of A15C A36U A69U .
0.509

What yeast fitness value was documented for this variant, C4U A36C U59A ?
≤ 0.5

Item C22U A40G A43U C46G C49G C62U has what recorded yeast fitness?
0.531

Given the variant U2A U8G C33A G38A , what is its reported yeast fitness?
≤ 0.5

Param item = C11U U19C C61G A65C ; retrieve measured yeast fitness.
≤ 0.5

What does the record list as yeast fitness for A21U C34G G56A ?
≤ 0.5

Reported yeast fitness, variant C5U G18C G52C : ____
≤ 0.5

Need yeast fitness, item G17A G63A
0.744

Can you share its yeast fitness? I mean this variant: G23C C49A U59C A69G
≤ 0.5

Which measured yeast fitness value corresponds to A15C C31G ?
0.632

Recorded yeast fitness of U47C A70G , please.
1.03

So what does the record say about yeast fitness for G25C C31U C46U ?
0.684

Item G18A A37U U47A C62U has what recorded yeast fitness?
≤ 0.5

Entry C22G A45U G48C C49G has what yeast fitness?
≤ 0.5

What value of yeast fitness has been reported for the following variant? G51A G56A U59C
0.565

Which measured yeast fitness value corresponds to U7C A37C C60G A65U A70C ?
0.569

// query yeast fitness value for entry U8A C24U C31G
≤ 0.5

Endpoint output: yeast fitness of U3A A14G C46G . Value?
0.62

Sample U13A G41C G52A — what was its yeast fitness?
≤ 0.5

Given G23A U47C C55U A69C , state its recorded yeast fitness.
≤ 0.5

# query: yeast fitness of entry U28A U35A
0.584

For the variant shown here, U2C A37U A40C , give the reported yeast fitness.
0.633

Please look up its yeast fitness: C30G A43U G48C C55A C66U
≤ 0.5

Form field: reported yeast fitness of U32C C34G A65U A70G
≤ 0.5

I am curious: what yeast fitness value has been reported for U3G A21C G67U ?
≤ 0.5

State the recorded yeast fitness for this entry: A15G U19C A37U C49U G51A
0.555

Using the record for U7G A70U , report its yeast fitness.
1.01

Quick check: yeast fitness of A15C G38A C49A ?
≤ 0.5

Given the variant C5A A57U G68U A70G , what is its reported yeast fitness?
0.541

Fill in the blank: the reported yeast fitness of G6A C30U A65C A69G A70U is ____.
≤ 0.5

Reported yeast fitness for U19C G23A G38A : what is it?
0.634

Returns the measured yeast fitness for the input variant. Input: C11G C30U A37C A70U
≤ 0.5

What value of yeast fitness has been recorded for this entry: G23A U59A
0.791

Give the measured yeast fitness of C5U C24U A40G .
0.637

Consider the variant A21G C30A U32G G67A A69C and give its measured yeast fitness.
≤ 0.5

Please give the measured yeast fitness for this variant: U28A C30U
0.667

Value lookup for yeast fitness; key = G12A A15C
0.773

What does the record list as yeast fitness for U3A C27G A43G ?
≤ 0.5

Find the recorded yeast fitness belonging to G12C A43U U59A A69G and report it.
≤ 0.5

Find the recorded yeast fitness belonging to C24G A40U and report it.
0.542

Record request: yeast fitness value, item C27G A36C
≤ 0.5

So what's the measured yeast fitness for this one? C5A U19A A65C
0.538

// lookup yeast fitness for A14U C49U
0.629

Data request, read-out yeast fitness, for U2G C62U
0.863

Please look up its yeast fitness: U26C C61U C62G
≤ 0.5

Need yeast fitness, item U2A U7A A15U
≤ 0.5

Any idea what its yeast fitness is? The variant is C27G G58A
0.698

Suppose we examine the variant C30U U35C A37G C55A A65G ; what yeast fitness value has been reported?
≤ 0.5

Please report the recorded yeast fitness for G18A G25C C49U .
0.74

So what does the record say about yeast fitness for U7A C27U C55U ?
≤ 0.5

Need yeast fitness, item G6A A57U G58A A65U
≤ 0.5

Dear colleague, I am looking for the recorded yeast fitness of the following variant: U7C U8A C62U
≤ 0.5

Requested read-out: yeast fitness. Entry: A37C A65U
0.866

Would you kindly share the measured yeast fitness for G10A U16A A65G ?
0.542

Could you tell me which yeast fitness is on file for C5U C24G A43C A45U G52A ?
≤ 0.5

Query: yeast fitness; subject: U3C A14U A37U
≤ 0.5

Reported yeast fitness, variant C33G C34G C46U : ____
0.547

Would you kindly share the measured yeast fitness for U7G C30U G38A G50A ?
0.589

Recorded yeast fitness for G9A C11A A40U G48C C55U C61G , please?
≤ 0.5

Entry G18A A20G has what yeast fitness?
0.613

Could you tell me which yeast fitness is on file for C4G C30G A69C A70G ?
≤ 0.5

What value of yeast fitness has been reported for the following variant? C30A A57C C60G
≤ 0.5

What does the record list as yeast fitness for C31U C55G C62U ?
≤ 0.5

Any idea what its yeast fitness is? The variant is U8A C49G A57C
≤ 0.5

Requested field: yeast fitness. Item: U2A A15G A45U G48A C66G
≤ 0.5

Quick one: yeast fitness of A20U A37C G38C ?
≤ 0.5

Reported yeast fitness, variant A43U G50A G52U A69C : ____
≤ 0.5
